Tested on: STZ induced diabetic nephropathy in rats
Test: Study 4: HCQ and its combination with Losartan, Telmisartan, Azilsartan and Ramipril, with Glimepiride control
Format: in vivo, Wistar rats
Details: kidney homogenate, after 8th week; dose mg/kg: HCQ 35, LT 5.5, RM 0.3, TL 4.5, AZ 2.5, alone or combined with HCQ 35
A collection of compounds and their measured TBARS

A selection of reference data follows.
| COMPOUND | RECORDED_MEASUREMENT |
| --- | --- |
| CCOc1nc2cccc(C(=O)O)c2n1Cc1ccc(-c2ccccc2-c2nc(=O)o[nH]2)cc1 [Azilsartan] | 0.6 ± 0.11 nM/mg |
| CCCc1nc2c(C)cc(-c3nc4ccccc4n3C)cc2n1Cc1ccc(-c2ccccc2C(=O)O)cc1 [Telmisartan] | 0.65 ± 0.15 nM/mg |

Form field - read-out: TBARS; system: STZ induced diabetic nephropathy in rats; submitted item: CCCCc1nc(Cl)c(CO)n1Cc1ccc(-c2ccccc2-c2nn[nH]n2)cc1 [Losartan]
0.74 ± 0.1 nM/mg

Form field - read-out: TBARS; system: STZ induced diabetic nephropathy in rats; submitted item: CCN(CCO)CCCC(C)Nc1ccnc2cc(Cl)ccc12 (centres unmarked) [Hydroxychloroquine]
0.67 ± 0.11 nM/mg

Form field - read-out: TBARS; system: STZ induced diabetic nephropathy in rats; submitted item: CCOC(=O)[C@H](CCc1ccccc1)N[C@@H](C)C(=O)N1[C@H](C(=O)O)C[C@@H]2CCC[C@@H]21 [Ramipril]
0.67 ± 0.1 nM/mg

====

System: STZ induced diabetic nephropathy in rats
Test: Study 3: HCQ and its combination with Losartan, Telmisartan, Azilsartan and Ramipril
Assay type: in vivo, Wistar rats
Conditions: dose mg/kg: LT 5.5, TL 5, AZ 2, RM 0.2, HCQ 22.5, alone or combined with HCQ 22.5; oral once daily 8 weeks
ASSAY_METRIC: TBARS (nM/mg)
Supply the numeric figure in nM/mg, leaving out any unit text.

A selection of reference data follows.
| MOLECULE | UNIT_ABBREV | RECORDED_MEASUREMENT |
| --- | --- | --- |
| CCOC(=O)[C@H](CCc1ccccc1)N[C@@H](C)C(=O)N1[C@H](C(=O)O)C[C@@H]2CCC[C@@H]21 | nM/mg | 0.716 |
| CCCc1nc2c(C)cc(-c3nc4ccccc4n3C)cc2n1Cc1ccc(-c2ccccc2C(=O)O)cc1 | nM/mg | 0.675 |
| CCN(CCO)CCCC(C)Nc1ccnc2cc(Cl)ccc12 (centres unmarked) [Hydroxychloroquine] | nM/mg | 0.726 |
| CCCCc1nc(Cl)c(CO)n1Cc1ccc(-c2ccccc2-c2nn[nH]n2)cc1 | nM/mg | 0.760 |

// moving on: another record for TBARS
Fill blank: measured TBARS of the molecule `CCOc1nc2cccc(C(=O)O)c2n1Cc1ccc(-c2ccccc2-c2nc(=O)o[nH]2)cc1` is ____.
0.624

====

System: STZ induced diabetic nephropathy in rats
Test: Study 4: HCQ and its combination with Losartan, Telmisartan, Azilsartan and Ramipril, with Glimepiride control
Assay type: in vivo, Wistar rats
Conditions: blood, Day28; dose mg/kg: HCQ 45, LT 11, RM 0.6, TL 9.5, AZ 4.5, alone or combined with HCQ 45
ASSAY_METRIC: Glucose Day28 (mg/dL)
Supply the numeric figure in mg/dL, leaving out any unit text.

| MOLECULE | Glucose Day28 / mg/dL |
| --- | --- |
| CCOC(=O)[C@H](CCc1ccccc1)N[C@@H](C)C(=O)N1[C@H](C(=O)O)C[C@@H]2CCC[C@@H]21 | 174.33 |
| CCCc1nc2c(C)cc(-c3nc4ccccc4n3C)cc2n1Cc1ccc(-c2ccccc2C(=O)O)cc1 | 184.33 |
| CCN(CCO)CCCC(C)Nc1ccnc2cc(Cl)ccc12 (centres unmarked) [Hydroxychloroquine] | 184.17 |
| CCCCc1nc(Cl)c(CO)n1Cc1ccc(-c2ccccc2-c2nn[nH]n2)cc1 | 178 |

// moving on: another record for Glucose Day28
Fill blank: measured Glucose Day28 of the molecule `CCOc1nc2cccc(C(=O)O)c2n1Cc1ccc(-c2ccccc2-c2nc(=O)o[nH]2)cc1` is ____.
179
